- experimental.details: activity coefficient (dimensionless); of the first substance listed, at infinite dilution; xn = mol fraction of the nth substance listed
- study.conditions: 302.45 K; Liquid; Chromatography; x1 = 0
observed.property: activity coefficient

compound: CCCO [propan-1-ol] + CCCCCCCCCCCCCC[P+](CCCCCC)(CCCCCC)CCCCCC.O=S(=O)([N-]S(=O)(=O)C(F)(F)F)C(F)(F)F
observed.property: activity coefficient
reported: 1.53
//
compound: C1CCCCCC1 [cycloheptane] + CCCCCCCCCCCCCC[P+](CCCCCC)(CCCCCC)CCCCCC.O=S(=O)([N-]S(=O)(=O)C(F)(F)F)C(F)(F)F
observed.property: activity coefficient
reported: 0.83
//
compound: CCCCO [butan-1-ol] + CCCCCCCCCCCCCC[P+](CCCCCC)(CCCCCC)CCCCCC.O=S(=O)([N-]S(=O)(=O)C(F)(F)F)C(F)(F)F
observed.property: activity coefficient
reported: 1.62
//
compound: CC(C)OC(C)C [diisopropyl ether] + CCCCCCCCCCCCCC[P+](CCCCCC)(CCCCCC)CCCCCC.O=S(=O)([N-]S(=O)(=O)C(F)(F)F)C(F)(F)F
observed.property: activity coefficient
reported: 0.93
//
compound: CO [methanol] + CCCCCCCCCCCCCC[P+](CCCCCC)(CCCCCC)CCCCCC.O=S(=O)([N-]S(=O)(=O)C(F)(F)F)C(F)(F)F
observed.property: activity coefficient
reported: 1.29
//
compound: C1CCCCC1 [cyclohexane] + CCCCCCCCCCCCCC[P+](CCCCCC)(CCCCCC)CCCCCC.O=S(=O)([N-]S(=O)(=O)C(F)(F)F)C(F)(F)F
observed.property: activity coefficient
reported: 0.83

* * *

- experimental.details: activity coefficient (dimensionless); of the first substance listed, at infinite dilution; xn = mol fraction of the nth substance listed
- study.conditions: 302.45 K; Liquid; Chromatography; x1 = 0
Please note: activity coefficient exactly at 0.8 is -1. Only values below 0.8 get 1.

compound: CCOCC [diethyl ether] + CCCCCCCCCCCCCC[P+](CCCCCC)(CCCCCC)CCCCCC.O=S(=O)([N-]S(=O)(=O)C(F)(F)F)C(F)(F)F
category: 1
//
compound: CCCCCC [hexane] + CCCCCCCCCCCCCC[P+](CCCCCC)(CCCCCC)CCCCCC.O=S(=O)([N-]S(=O)(=O)C(F)(F)F)C(F)(F)F
category: -1
//
compound: CC1CCCC1 [methylcyclopentane] + CCCCCCCCCCCCCC[P+](CCCCCC)(CCCCCC)CCCCCC.O=S(=O)([N-]S(=O)(=O)C(F)(F)F)C(F)(F)F
category: -1
//
compound: ClC(Cl)Cl [trichloromethane] + CCCCCCCCCCCCCC[P+](CCCCCC)(CCCCCC)CCCCCC.O=S(=O)([N-]S(=O)(=O)C(F)(F)F)C(F)(F)F
category: 1
//
compound: c1ccsc1 [thiophene] + CCCCCCCCCCCCCC[P+](CCCCCC)(CCCCCC)CCCCCC.O=S(=O)([N-]S(=O)(=O)C(F)(F)F)C(F)(F)F
category: 1
//
compound: CCC[N+](=O)[O-] [1-nitropropane] + CCCCCCCCCCCCCC[P+](CCCCCC)(CCCCCC)CCCCCC.O=S(=O)([N-]S(=O)(=O)C(F)(F)F)C(F)(F)F
category: -1
//
compound: CC#N [acetonitrile] + CCCCCCCCCCCCCC[P+](CCCCCC)(CCCCCC)CCCCCC.O=S(=O)([N-]S(=O)(=O)C(F)(F)F)C(F)(F)F
category: 1
//
compound: CCCCCCCCCC [decane] + CCCCCCCCCCCCCC[P+](CCCCCC)(CCCCCC)CCCCCC.O=S(=O)([N-]S(=O)(=O)C(F)(F)F)C(F)(F)F
category: -1
//
compound: ClC(Cl)(Cl)Cl [tetrachloromethane] + CCCCCCCCCCCCCC[P+](CCCCCC)(CCCCCC)CCCCCC.O=S(=O)([N-]S(=O)(=O)C(F)(F)F)C(F)(F)F
category: 1
//
compound: C1COCCO1 [1,4-dioxane] + CCCCCCCCCCCCCC[P+](CCCCCC)(CCCCCC)CCCCCC.O=S(=O)([N-]S(=O)(=O)C(F)(F)F)C(F)(F)F
category: 1
//
compound: c1ccncc1 [pyridine] + CCCCCCCCCCCCCC[P+](CCCCCC)(CCCCCC)CCCCCC.O=S(=O)([N-]S(=O)(=O)C(F)(F)F)C(F)(F)F
category: 1
//
compound: CCCCCCCCC [nonane] + CCCCCCCCCCCCCC[P+](CCCCCC)(CCCCCC)CCCCCC.O=S(=O)([N-]S(=O)(=O)C(F)(F)F)C(F)(F)F
category: -1

Cited source: the NIST ThermoML archive (doi:10.1021/je800754w)
